tgt: DLK (Homo sapiens)
Sequence (Q12852 1-520): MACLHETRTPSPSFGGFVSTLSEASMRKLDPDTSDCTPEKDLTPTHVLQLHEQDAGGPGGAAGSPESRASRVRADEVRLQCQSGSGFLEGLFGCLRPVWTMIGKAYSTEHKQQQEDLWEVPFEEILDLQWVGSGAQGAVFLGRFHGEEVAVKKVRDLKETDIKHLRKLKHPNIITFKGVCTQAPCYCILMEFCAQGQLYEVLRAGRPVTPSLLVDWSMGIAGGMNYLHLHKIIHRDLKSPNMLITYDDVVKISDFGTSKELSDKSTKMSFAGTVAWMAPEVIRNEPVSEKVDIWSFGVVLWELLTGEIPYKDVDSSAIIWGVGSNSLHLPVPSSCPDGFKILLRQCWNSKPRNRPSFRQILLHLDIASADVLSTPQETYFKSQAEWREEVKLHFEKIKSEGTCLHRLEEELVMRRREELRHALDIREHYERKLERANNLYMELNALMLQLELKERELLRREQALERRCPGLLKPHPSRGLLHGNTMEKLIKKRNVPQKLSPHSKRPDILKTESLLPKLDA
test_settings: read-out: DLK (Ki) μM; TR-FRET; 5 nM GST-tagged DLK (catalytic domain aa 1-520), 40 nM HIS-MKK4 K131M substrate, 30 μM ATP, 60 minutes
endpoint_label: Ki (µM)
Give bare numbers, in µM.

In [3]: df
Out[3]:
                                   molecule  endpoint_label  reported
0  CC(C)n1nc(-c2cnc3[nH]cc(C(F)(F)F)c3c2)cc1C1CCN(CC#N)CC1 [Compound 51]              Ki   0.00017
1  CC(C)n1nc(-c2cnc3[nH]cc(F)c3c2)cc1C1CN(C2COC2)C1 [Compound 58]              Ki      0.64
2  CC(CC#N)N1C[C@@H]2[C@H](C1)[C@H]2c1cc(-c2cnc(N)c(C(F)(F)F)c2)nn1C(C)C (stereo partly shown) [Compound 131]              Ki    0.0044
3  CC(C)n1nc(-c2cnc(N)c3cn[nH]c23)cc1[C@H]1[C@@H]2CN(CC(F)(F)F)C[C@@H]21 [Compound 114]              Ki      0.96

Hi, could you look up Ki for each item in my list?
1. CC(C)n1nc(-c2cnc3[nH]cc(C(F)(F)F)c3c2)cc1C1CCN(C2COC2)CC1 [Compound 70]
2. CC1(Cn2nc(-c3cnc(N)c(C(F)(F)F)c3)cc2[C@H]2[C@@H]3CN(C4COC4)C[C@@H]32)CC1 [Compound 177]
3. Nc1ncc(-c2cc([C@H]3[C@@H]4CN(C5COC5)C[C@@H]43)n(C3CC3)n2)cc1C(F)F [Compound 170]

0.0023
0.00067
0.012
